# System: U2932 parental
# test description: cell proliferation relative to vehicle (% of vehicle); higher = less growth inhibition
# particulars: 500 nM; 72 h
measurement type: cell proliferation
One number for each entry.

Consider the reported cell proliferation for these compounds:
- compound: "COc1cc2ncnc(Nc3ccc(O)c(Br)c3)c2cc1OC"
  measurement type: "cell proliferation"
  experimental value: 101
- compound: "O=C(Nc1ccc(OC(F)(F)F)cc1)c1sccc1NCc1ccnc2ccccc12"
  measurement type: "cell proliferation"
  experimental value: 98.9
- compound: "C=C1/C(=C\\C=C2/CCC[C@]3(C)[C@@H]([C@H](C)/C=C/[C@H](C)C(C)C)CC[C@@H]23)C[C@@H](O)C[C@@H]1O"
  measurement type: "cell proliferation"
  experimental value: 98.5
- compound: "CC(C)(C#N)c1cc(Cn2cncn2)cc(C(C)(C)C#N)c1"
  measurement type: "cell proliferation"
  experimental value: 96.7
- compound: "O=C(NCCCNc1nc(Nc2cccc(NC(=O)N3CCCC3)c2)ncc1I)c1cccs1"
  measurement type: "cell proliferation"
  experimental value: 92.1

// each listed compound needs a value for cell proliferation
1. Nc1nc(N)c2nc(-c3cccc(O)c3)c(-c3cccc(O)c3)nc2n1
2. CCN(CC)CCCC(C)Nc1ccnc2cc(Cl)ccc12 (stereo unspecified) [Chloroquine Phosphate]
3. CN1CCC(Nc2nc(Nc3ccc(Oc4ccccc4)cc3)c3c(=O)[nH]cc(Br)c3n2)CC1
4. COC(=O)c1ccc([C@H]2c3[nH]c4ccccc4c3C[C@H](C(=O)OC)N2C(=O)CCl)cc1
5. CCO[C@@H]1OC(=O)C[C@@H]1NC(=O)[C@@H]1CCCN1C(=O)[C@@H](NC(=O)c1ccc(N)c(Cl)c1)C(C)(C)C

Result:
1. 99.2
2. 99.2
3. 85.5
4. -1.25
5. 98.2

----------
Please provide measured cell proliferation for the entries that follow.
# Tested on: U2932 TK216-resistant clone 2
# test description: cell proliferation relative to vehicle (% of vehicle); higher = less growth inhibition
# particulars: 500 nM; 72 h
Numbers only.

Record excerpt, results attached:
- chemical structure: "COc1ccc(C(=O)C2CCN(CC(=O)N(Cc3nc4c(c(=O)[nH]3)COCC4)CC3CC3)CC2)cc1"
  cell proliferation: 95.3
- chemical structure: "CC(=O)c1c(C)c2cnc(Nc3ccc(N4CCNCC4)cn3)nc2n(C2CCCC2)c1=O"
  cell proliferation: 85.1
- chemical structure: "CCC[C@H](Nc1nc(-c2ccc(NC(=O)NCC)c(OC)c2)ncc1C)c1cccnc1"
  cell proliferation: 9.29

Problem: What is its cell proliferation for U2932 TK216-resistant clone 2? Entry: FC(F)c1nc2ccccc2n1-c1nc(N2CCOCC2)nc(N2CCOCC2)n1
Result: 42.5

----------
# System: U2932 TK216-resistant clone 2
# test description: cell proliferation relative to vehicle (% of vehicle); higher = less growth inhibition
# particulars: 50 nM; 72 h
Kindly state cell proliferation for each of the entries shown.
One number for each entry.

Look over these answered cases.
- molecule: "NC1(c2ccc(-c3nc4ccn5c(=O)[nH]nc5c4cc3-c3ccccc3)cc2)CCC1"
  cell proliferation: 101
- molecule: "Cc1ccc2c(=O)c3cccc(CC(=O)O)c3oc2c1C [DMXAA (Vadimezan)]"
  cell proliferation: 110
- molecule: "COc1cc(Nc2c(C#N)cnc3cc(OCCCN4CCN(C)CC4)c(OC)cc23)c(Cl)cc1Cl [Bosutinib (SKI-606)]"
  cell proliferation: 106

Attention now turns to another entry.
Problem: Which cell proliferation reading was recorded for the molecule CCC[C@H](NC(=O)/C(C#N)=C/c1cccc(Br)n1)c1ccccc1 [Degrasyn (WP1130)] ?
Result: 105

----------
# Test system: U2932 TK216-resistant clone 2
# test description: cell proliferation relative to vehicle (% of vehicle); higher = less growth inhibition
# particulars: 500 nM; 72 h
measurement type: cell proliferation
One number for each entry.

- compound: "CN(C)Cc1c(C(=O)NCCOc2ccc(C(=O)NO)cc2)oc2ccccc12"
  cell proliferation: 40.3
- compound: "CC(=O)Nc1cccc(-n2c(=O)n(C3CC3)c(=O)c3c(Nc4ccc(I)cc4F)n(C)c(=O)c(C)c32)c1"
  cell proliferation: 105

Problem: What value of cell proliferation has been reported for the following compound? Oc1ccc(/C=C/c2cc(O)cc(O)c2)cc1 [Resveratrol]
Result: 111

----------
# System: U2932 TK216-resistant clone 3
# test description: cell proliferation relative to vehicle (% of vehicle); higher = less growth inhibition
# particulars: 500 nM; 72 h
Assign cell proliferation to each entry below.

In the examples that follow, each entry is paired with its recorded cell proliferation.
- compound: "CC(C=CC(=O)NO)=CC(C)C(=O)c1ccc(N(C)C)cc1 (stereo not given)"
  cell proliferation: 4.96
- compound: "COc1nc(OCc2cccc(-c3ccccc3)c2C)ccc1CNCCNC(C)=O"
  cell proliferation: 82.7
- compound: "CN1CCC(Nc2nc(Nc3ccc(Oc4ccccc4)cc3)c3c(=O)[nH]cc(Br)c3n2)CC1"
  cell proliferation: 83.4

Report cell proliferation for every entry below.
1. Cc1cc(NC(=O)c2cccc(NC(=O)/C=C/CN(C)C)c2)ccc1Nc1nccc(-c2cccnc2)n1
2. c1cc(-c2cnn3cc(-c4ccc(OCCN5CCCCC5)cc4)cnc23)ccn1 [Dorsomorphin 2HCl]
3. CC#CC(=O)N1CCC[C@H]1c1nc(-c2ccc(C(=O)Nc3ccccn3)cc2)c2c(N)nccn12
4. O=c1[nH]cc(F)c(=O)[nH]1
5. O=C(O)C(Cc1c[nH]c2ccccc12)N1C(=O)c2ccccc2C1=O (stereo not given)

Result:
1. 116
2. 108
3. 72.9
4. 106
5. 98

Need cell proliferation for each of these compounds.
1. O=C(NCCCNc1nc(Nc2cccc(NC(=O)N3CCCC3)c2)ncc1I)c1cccs1
2. C[C@]1(c2nc3c(C(N)=O)cccc3[nH]2)CCCN1

Result:
[95.7, 80.8]

----------
So I've got a bunch of compounds here, and I need their cell proliferation values.
# System: U2932 parental
# test description: cell proliferation relative to vehicle (% of vehicle); higher = less growth inhibition
# particulars: 500 nM; 72 h
Where a name gives a salt, the structure may show the parent alone.

- compound: "CCN(CC)CCNC(=O)c1ccc(N)cc1 [Procainamide HCl]"
  target: "U2932 parental"
  experimental value: 95.9
- compound: "CCn1c2ccccc2c2cc(Nc3ccnc(NCCCN4CCOCC4)n3)ccc21"
  target: "U2932 parental"
  experimental value: 91.7
- compound: "CO[C@H]1/C=C\\C=C(/C)C(=O)NC2=CC(=O)C(NCCN(C)C)=C(C[C@@H](C)C[C@H](OC)[C@H](O)[C@@H](C)/C=C(\\C)[C@@H]1OC(N)=O)C2=O [17-DMAG (Alvespimycin) HCl]"
  target: "U2932 parental"
  experimental value: 3.09
- compound: "CNc1nc(Nc2cn(C(C)(C)C#N)nc2C)ncc1C(F)(F)F"
  target: "U2932 parental"
  experimental value: 98.2

# per-item lookup of cell proliferation; items listed below
1. CNCc1ccc(-c2[nH]c3cc(F)cc4c3c2CCNC4=O)cc1
2. Nc1cccc2c1CN(C1CCC(=O)NC1=O)C2=O (stereo unspecified) [Lenalidomide (CC-5013)]
3. Nc1ccn([C@@H]2O[C@H](CO)[C@@H](O)[C@@H]2O)c(=O)n1
4. Nc1nc(Nc2ccc(S(N)(=O)=O)cc2)nn1C(=O)c1c(F)cccc1F
5. C[C@]12CC[C@@H]3c4ccc(O)cc4C[C@@H](CCCCCCCCC[S+]([O-])CCCC(F)(F)C(F)(F)F)[C@H]3[C@@H]1CC[C@@H]2O (stereo partly specified)
6. CCC[C@H](Nc1nc(-c2ccc(NC(=O)NCC)c(OC)c2)ncc1C)c1cccnc1
7. COc1cc2c(cc1O)CC[C@@H]1[C@@H]2CC[C@]2(C)[C@@H](O)CC[C@@H]12
8. CN(C)CCOc1ccc(/C(=C(/CCCl)c2ccccc2)c2ccccc2)cc1 [Toremifene Citrate]

Result:
[93.4, 99.7, 36, 87.7, 93.9, 14.3, 54, 88.8]

----------
# Tested on: U2932 TK216-resistant clone 2
# test description: cell proliferation relative to vehicle (% of vehicle); higher = less growth inhibition
# particulars: 500 nM; 72 h
For each entry below, report its cell proliferation value.
Give bare numbers.

Answered cases to consult:
- compound: "CCCCCCCCCCCC1=C(O)C(=O)C=C(O)C1=O"
  target: "U2932 TK216-resistant clone 2"
  cell proliferation: 98.8
- compound: "Nc1cccc2c1CN(C1CCC(=O)NC1=O)C2=O (stereo not given) [Lenalidomide (CC-5013)]"
  target: "U2932 TK216-resistant clone 2"
  cell proliferation: 98

The following compounds each have a reported value; give each one's cell proliferation.
1. CN(C)c1nc(N(C)C)nc(N(C)C)n1
2. CCCNC(=O)c1cn2ncnc(Nc3cc(C(=O)NC4CC4)ccc3C)c2c1C
3. O=C(NCCCNc1nc(Nc2cccc(NC(=O)N3CCCC3)c2)ncc1I)c1cccs1

Result:
102
98.2
98.8
